# Test system: Staphylococcus aureus OC4172
# test.summary: In vitro antibacterial activity (MIC), microdilution broth method, strain A
# Assay type: cell-based
# assay.context: cation adjusted Mueller-Hinton broth, 35° C., 16-20 hours
# Experimental: Minimal inhibitory concentration (MIC) is an indicator of in vitro antibacterial activity. […] The in vitro antimicrobial activity of representative compounds of the present invention was determined by the microdilution broth method following the test method from the National Committee for Clinical Laboratory Standards (NCCLS). […]
Labelling field: enter True if recorded MIC is less than 0.2 µg/mL. Enter False if it equals or exceeds that cut-off.

C[C@@H]1NCCn2cc(-c3cc4c(cc3F)c(=O)c(C(=O)O)cn4C3CC3)cc21 [Compound 21]	False

In the following, a different compound is considered.
Exercise: Decide: MIC of CN1CCn2cc(-c3ccc4c(=O)c(C(=O)O)cn(C5CC5)c4c3OC(F)F)cc2C1 [Compound 4] strictly below 0.2 µg/mL?
Solution: False

----------
I'd appreciate it if you could supply MIC values for the items below.
# Tested on: Staphylococcus aureus OC4172
# test.summary: In vitro antibacterial activity (MIC), microdilution broth method, strain A
# Format: cell-based
# assay.context: cation adjusted Mueller-Hinton broth, 35° C., 16-20 hours
One number for each entry, in µg/mL.

Example compounds with recorded MIC:
C[C@H]1NCCn2cc(-c3cc4c(cc3F)c(=O)c(C(=O)O)cn4C3CC3)cc21	0.25
COc1c(-c2cc3n(c2)C[C@H](C)N[C@@H]3C)c(F)cc2c(=O)c(C(=O)O)cn(C3CC3)c12	0.12
C[C@@H]1NCCn2cc(-c3ccc4c(=O)c(C(=O)O)cn(C5CC5)c4c3OC(F)F)cc21	0.5
C[C@@H]1NCCn2cc(-c3c(F)cc4c(=O)c(C(=O)O)cn5c4c3OC[C@@H]5C)cc21	0.25
O=C(O)c1cn(C2CC2)c2c(OC(F)F)c(-c3cc4n(c3)CCNC4)ccc2c1=O	0.06

Items follow; give MIC for each.
1. COc1c(-c2cc3n(c2)CCN[C@@H]3C)c(F)cc2c(=O)c(C(=O)O)cn(C3CC3)c12
2. O=C(O)c1cn(C2CC2)c2c(OC(F)F)c(C3C[C@H]4CNCCN4C3)ccc2c1=O (some centres unmarked)

Solution:
0.25
8

----------
I'd appreciate it if you could supply MIC values for the items below.
# System: Staphylococcus aureus OC4172
# test.summary: In vitro antibacterial activity (MIC), microdilution broth method, strain A
# Assay type: cell-based
# assay.context: cation adjusted Mueller-Hinton broth, 35° C., 16-20 hours
One number for each entry, in µg/mL.

Example compounds with recorded MIC:
COc1c(-c2cc3n(c2)C[C@@H](C)NC3)c(F)cc2c(=O)c(C(=O)O)cn(C3CC3)c12	0.03
C[C@H]1Cn2cc(-c3c(F)cc4c(=O)c(C(=O)O)cn5c4c3OC[C@@H]5C)cc2CN1	0.25
COc1c(-c2cc3n(c2)C[C@@H](C)N(C)C3)c(F)cc2c(=O)c(C(=O)O)cn(C3CC3)c12	0.25
C[C@H]1Cn2cc(-c3nc4c(cc3F)c(=O)c(C(=O)O)cn4-c3ccc(F)cc3F)cc2CN1	0.12
COc1c(-c2cc3n(c2)CCNC3)c(F)cc2c(=O)c(C(=O)O)cn(C3CC3)c12	0.03

Items follow; give MIC for each.
1. C[C@@H]1NCCn2cc(-c3nc4c(cc3F)c(=O)c(C(=O)O)cn4C3CC3)cc21
2. C[C@H]1NCCn2cc(-c3ccc4c(=O)c(C(=O)O)cn(C5CC5)c4c3OC(F)F)cc21

Solution:
[0.5, 0.5]

Cited source for all entries: patent US20090270379A1
